# system: wt-AR (Homo sapiens, UniProt P10275)
# Construct: expressed in transfected cells; host or cells: PC-3
# Sequence (P10275 1-920): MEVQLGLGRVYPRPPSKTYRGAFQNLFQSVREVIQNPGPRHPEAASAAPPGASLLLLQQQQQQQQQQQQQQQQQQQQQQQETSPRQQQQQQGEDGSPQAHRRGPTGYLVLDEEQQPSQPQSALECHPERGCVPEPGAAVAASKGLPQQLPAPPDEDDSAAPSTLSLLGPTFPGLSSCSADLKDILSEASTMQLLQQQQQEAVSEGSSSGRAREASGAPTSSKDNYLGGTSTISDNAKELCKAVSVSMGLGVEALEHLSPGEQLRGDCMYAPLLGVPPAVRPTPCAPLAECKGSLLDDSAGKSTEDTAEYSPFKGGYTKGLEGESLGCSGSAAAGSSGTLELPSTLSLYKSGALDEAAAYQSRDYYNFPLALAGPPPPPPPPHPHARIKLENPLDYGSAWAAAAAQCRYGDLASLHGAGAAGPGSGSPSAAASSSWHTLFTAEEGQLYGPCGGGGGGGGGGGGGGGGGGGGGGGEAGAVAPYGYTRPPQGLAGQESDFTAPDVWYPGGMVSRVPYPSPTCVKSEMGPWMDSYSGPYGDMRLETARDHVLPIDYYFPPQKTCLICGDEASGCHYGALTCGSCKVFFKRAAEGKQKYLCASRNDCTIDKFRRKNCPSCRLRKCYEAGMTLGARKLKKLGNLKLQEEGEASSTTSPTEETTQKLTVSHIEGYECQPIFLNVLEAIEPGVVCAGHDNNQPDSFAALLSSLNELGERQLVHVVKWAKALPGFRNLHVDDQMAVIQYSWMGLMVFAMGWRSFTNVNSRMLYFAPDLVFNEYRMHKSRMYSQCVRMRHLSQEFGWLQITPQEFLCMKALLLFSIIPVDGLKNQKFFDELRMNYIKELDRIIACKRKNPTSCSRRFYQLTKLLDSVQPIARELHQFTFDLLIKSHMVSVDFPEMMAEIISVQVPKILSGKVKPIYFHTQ
# run-description: mammalian two-hybrid (MM2H) assay, peptide interaction with wt-AR
# Format: cell-based
# recorded-conditions: PC-3 cells; ethanol; Gal-4 = 1
Ends that are not written are not given here.
quantity-kind: wt-AR Ethanol, peptide-AR interaction in MM2H assay
Lab note: record just the number, no unit beside it.

Request: I'm curious: which wt-AR Ethanol, peptide-AR interaction in MM2H assay was measured for C412-FY: phage display screened peptide APSDTY-FQRFY-R (APSDTYFQRFYR; also: fused to Gal4 DNA-binding domain, end not given here) tested on wt-AR (Homo sapiens, UniProt P10275)?
Response: 12

Request: So what wt-AR Ethanol, peptide-AR interaction in MM2H assay did C414-FY: phage display screened peptide NPSSM-FEKFY-LR (NPSSMFEKFYLR; also: fused to Gal4 DNA-binding domain, end not given here) get with wt-AR (Homo sapiens, UniProt P10275)?
Response: 10

Request: Find wt-AR Ethanol, peptide-AR interaction in MM2H assay (wt-AR (Homo sapiens, UniProt P10275)) for the entry C4-FY: phage display screened peptide SPL-FSSFY-HART (SPLFSSFYHART; also: fused to Gal4 DNA-binding domain, end not given here)
Response: 4
